Target: human MC4R receptor (human, UniProt P32245 1-332)
Sequence (P32245 whole entry): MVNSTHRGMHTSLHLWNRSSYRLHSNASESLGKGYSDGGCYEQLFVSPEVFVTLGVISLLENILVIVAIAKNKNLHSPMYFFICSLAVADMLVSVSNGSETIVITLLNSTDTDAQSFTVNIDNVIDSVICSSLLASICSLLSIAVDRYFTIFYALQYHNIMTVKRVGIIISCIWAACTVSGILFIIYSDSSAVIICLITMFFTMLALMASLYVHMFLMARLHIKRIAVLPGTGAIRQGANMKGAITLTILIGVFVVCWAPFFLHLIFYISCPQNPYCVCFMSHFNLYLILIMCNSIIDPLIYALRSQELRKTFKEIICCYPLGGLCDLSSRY
Experiment: cell-based or functional assay
Positions of bridges follow the written chain, without caps; N, C: chain ends. Non-standard residues stand in square brackets, D forms with d. dPhe(4-Br) = N[C@H](Cc1ccc(Br)cc1)C(=O)O; d2Nal = N[C@H](Cc1ccc2ccccc2c1)C(=O)O; dTic = O=C(O)[C@H]1Cc2ccccc2CN1
Test readout: % max activation (%)
Note: unit % is implicit; provide only the numeric part.

>>> test_result("Ac-RC[dA]P[d2Nal]RWC-NH2 (disulfide 2-8; SMILES CC(=O)N[C@@H](CCCNC(=N)N)C(=O)N[C@H]1CSSC[C@@H](C(N)=O)NC(=O)[C@H](Cc2c[nH]c3ccccc23)NC(=O)[C@H](CCCNC(=N)N)NC(=O)[C@@H](Cc2ccc3ccccc3c2)NC(=O)[C@@H]2CCCN2C(=O)[C@@H](C)NC1=O) [CTX-2203]")
1.4
>>> test_result("Ac-RC[dA]R[dPhe(4-Br)]RWC-NH2 (disulfide 2-8) [CTX-2205]")
88

Moving on to the next binder.
Look up % max activation: Ac-RC[dA]R[dPhe(4-Br)]R[dTic]C-NH2 (disulfide 2-8) [CTX-1256]
29
